In this section we review reported cell viability (log2) values for a set of molecules.
system: A673/TR/shEF; assay: cell viability (LOESS-normalised, relative to median of negative controls) (log2 ratio); higher = more viable cells (less compound effect), active = hit call of the paper (over 3 MAD below the median); conditions: 0.025 µM; library screen: screen2; EWS-FLI1 expression: high (no doxycycline); treatment time: 72 h
Hit rate of the full screen: of about 3,200 compounds, about 300 (9.4%) showed activity. The entries come from a sample that favours actives as a whole.

Smiles Record	Study Target	cell viability (log2)
C[C@@H]1C[C@@H]([C@H](O)CC2CC(=O)NC(=O)C2)C(=O)[C@@H](C)C1	A673/TR/shEF	0.156
NC(=O)c1cc([N+](=O)[O-])cc([N+](=O)[O-])c1	A673/TR/shEF	0.148
COc1cc([C@@H]2c3cc4c(cc3[C@H](O)[C@H]3COC(=O)[C@H]23)OCO4)cc(OC)c1OC	A673/TR/shEF	0.106
CC[C@H]1CN2CCc3cc(OC)c(OC)cc3[C@@H]2C[C@@H]1C[C@H]1NCCc2cc(OC)c(OC)cc21	A673/TR/shEF	0.187
C[C@H]1C(=O)O[C@@H]2CCN3CC=C(COC(=O)[C@](C)(O)[C@]1(C)O)[C@H]23	A673/TR/shEF	0.0665

====

test system: A673/TR/shEF; experiment: cell viability (LOESS-normalised, relative to median of negative controls) (log2 ratio); higher = more viable cells (less compound effect), active = hit call of the paper (over 3 MAD below the median); conditions: 0.25 µM; library screen: screen1; EWS-FLI1 expression: low (doxycycline-induced shRNA knockdown); treatment time: 72 h
Among all 3,200 compounds or so, about 300 (9.4%) showed activity. This excerpt belongs to a sample that is enriched for actives.
In this section we review reported cell viability (log2) values for a set of compounds.
Attribute Measured: cell viability (log2)

Compound	Attribute Measured	Value Observed
FC(F)(F)c1cccc(N2CCNCC2)c1	cell viability (log2)	0.0689
Brc1ccc(CN2CCNCC2)cc1	cell viability (log2)	0.121
CC(=O)OC1CCC23C(=O)OC45CCC(C6=CC(=O)OC6)C4(C)CCC2C5CCC3(O)C1 (stereo not given)	cell viability (log2)	-0.171
COC(C)(C)CCCC(C)C/C=C/C(C)=C/C(=O)OC(C)C (stereo not given)	cell viability (log2)	0.0238
C[C@]12CC[C@H]3[C@@H](CC[C@]4(O)C[C@@H](O)CC[C@]34C=O)[C@@]1(O)CC[C@@H]2C1=CC(=O)OC1	cell viability (log2)	-0.17

====

tested on: A673/TR/shEF; assay: cell viability (LOESS-normalised, relative to median of negative controls) (log2 ratio); higher = more viable cells (less compound effect), active = hit call of the paper (over 3 MAD below the median); details: 0.25 µM; library screen: screen2; EWS-FLI1 expression: high (no doxycycline); treatment time: 72 h
The whole screen tested about 3,200 compounds, of which about 300 (9.4%) showed activity. This is one part of a sample in which actives are shown more often than they occur.

Compound	cell viability (log2)
CCCN(CCC)C1CCc2cccc(O)c2C1 (stereo unspecified)	0.114
COc1cc(C=C(C#N)C#N)cc(O)c1O	0.15
C[C@]12Cc3cn4c(nc3C=C1CCC1C2CC[C@@]2(C)[C@H]1CC[C@@]2(O)C#N)nc1ccccc14 (stereo partly specified)	0.119
CCCN(CCC)[C@@H]1CCc2c(F)ccc(O)c2C1	0.13
N[C@@H](Cn1ccc(=O)[nH]c1=O)C(=O)O	0.256
N#CC(C#N)=Cc1cc(O)c(O)c(O)c1	0.269
